Activity values for the compounds below.
tested on: Sarcoma-180; experiment: Antitumor activity against mouse ascites Sarcoma 180 cells allografted in ddN mouse assessed as percentage of total packed cell volume ratio at 100 mg/kg/day for 5 days administered 24 hrs after tumor inoculation measured 7th day after tumor inoculation; assay type: functional
Field format: number, assumed %, no unit text.

Query: Give Sarcoma-180 Activity for COc1cc(/C=C2\CC/C(=C\c3cc(OC)c(OCc4ccccc4)c(OC)c3)C2=O)cc(OC)c1OCc1ccccc1
Result: 66

Query: Next: COc1ccc(C=C2C(=O)c3ccccc3C2=O)cc1OC
Result: 41

Query: Continue with COc1cc(C=C2C(=O)c3ccccc3C2=O)cc(OC)c1OC
Result: 41

Query: Check COc1cc(/C=C2\CC/C(=C\c3cc(OC)c(O)c(OC)c3)C2=O)cc(OC)c1O too.
Result: 66

Query: Another compound to look at: COc1cc(/C=C2\CCC/C(=C\c3ccc(OCc4ccccc4)c(OC)c3)C2=O)ccc1OCc1ccccc1
Result: 66
